Experiment: Solubility in water
Type: physicochemical
Conditions: read-out: soluble dans l'eau
Observed Property: solubility (mg/mL)

>>> numeric_readout("COc1cc(OC)c(Cl)c(OCC(O)CNC(C)(C)C)c1 (stereo not shown) [CRL 41 058]")
12.5
